# credit: paper PMC3888668

molecular target: DOP-R (Rattus norvegicus); format: biochemical; conditions: read-out: Mean (± SEM) IC50 for Striatal DOP-R Inhibition, DPDPE Inhibition; DPDPE (10 μmol/L)-stimulated [35S]GTPγS binding; striatal membranes
ENDPOINT: IC50 (nM)
Write the value in nM as a bare number.

Query string: Name the reported IC50 value associated with the compound Oc1ccc2c3c1O[C@H]1c4ncc(-c5ccc(Cl)cc5)cc4C[C@@]4(O)[C@@H](C2)N(CC2CC2)CC[C@]314 [SoRI-9409]
Result string: 3.5

----------
biological target: DOP-R (Rattus norvegicus); type: biochemical; settings: Mean (± SEM) IC50 for Striatal DOP-R Inhibition, DPDPE Inhibition, DPDPE (10 μmol/L)-stimulated [35S]GTPγS binding; striatal membranes
ENDPOINT: IC50
Could you give the number and then its unit, please?

Query string: Quick one: IC50 of Oc1ccc2c3c1O[C@H]1c4[nH]c5ccccc5c4C[C@@]4(O)[C@@H](C2)N(CC2CC2)CC[C@]314 ?
Result string: 0.4 nM

----------
biological target: DOP-R (Rattus norvegicus); type: biochemical; conditions: read-out: Mean (± SEM) EC50 for DOP-R Stimulation, Striatum; striatum membranes; [35S]GTPγS binding
ENDPOINT: EC50 (nM)
# value in nM; strip the unit string

Query string: For the record CN1CCC2(c3cccc(O)c3)Cc3nc4ccccc4cc3CC2C1 (stereo not shown) , what value of EC50 is listed for DOP-R (Rattus norvegicus)?
Result string: 372

----------
target: UniProt P33533; assay type: biochemical; conditions: read-out: Mean (± SEM) EC50 for DOP-R Stimulation, Spinal Cord; spinal cord membranes; [35S]GTPγS binding
ENDPOINT: EC50 (µM)
Entry rule: numbers only, all in µM.

Query string: What value of measured EC50 is listed for CN1CCC2(c3cccc(O)c3)Cc3nc4ccccc4cc3CC2C1 (stereo not shown) ?
Result string: 3.7

----------
biological target: DOP-R (Rattus norvegicus, UniProt P33533); format: biochemical; conditions: Mean (± SEM) IC50 for Striatal DOP-R Inhibition, SNC80 Inhibition, SNC80 (10 μmol/L)-stimulated [35S]GTPγS binding; striatal membranes
Sequence (P33533 whole entry): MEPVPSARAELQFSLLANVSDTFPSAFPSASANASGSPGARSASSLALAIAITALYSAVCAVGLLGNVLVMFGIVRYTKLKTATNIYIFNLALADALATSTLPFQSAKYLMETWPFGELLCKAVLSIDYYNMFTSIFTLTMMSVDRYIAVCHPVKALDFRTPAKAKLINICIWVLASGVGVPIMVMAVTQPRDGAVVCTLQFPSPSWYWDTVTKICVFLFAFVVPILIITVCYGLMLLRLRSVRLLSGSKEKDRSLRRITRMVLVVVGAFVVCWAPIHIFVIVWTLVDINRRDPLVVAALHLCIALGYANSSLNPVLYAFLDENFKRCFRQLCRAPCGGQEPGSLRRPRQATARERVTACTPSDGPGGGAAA
ENDPOINT: pIC50
When answering, recall that pIC50 equals minus log10 of the concentration in mol/L, and write that number alone.

Query string: Requested field: pIC50. Item: Oc1ccc2c3c1O[C@H]1c4[nH]c5ccccc5c4C[C@@]4(O)[C@@H](C2)N(CC2CC2)CC[C@]314 [Naltrindole, naltrindole]
Result string: 7.51
